tested on: THP-1; experiment: CellTiter-Glo cell proliferation assay, THP-1; assay type: cell-based; settings: Homo sapiens, 72 hours, Table 1, read-out: Growth inhibition (IC50)
pIC50: −log10 of the molar value.
Reported Property: pIC50

                                  structure  readout_value
0  NC(=O)/C(=C/n1cnc(-c2cc(C(F)(F)F)cc(S(F)(F)(F)(F)F)c2)n1)c1cncnc1           6.08

###

biological target: XPO1 (Homo sapiens, UniProt O14980); assay: REV-GFP translocation assay in U2OS cells; type: cell-based; parameters: endogenous in cells; host or cells: U2OS cells stably expressing REV-GFP (clones from HD Biosciences); settings: Table 10; second value of the cell
Sequence (O14980 whole entry): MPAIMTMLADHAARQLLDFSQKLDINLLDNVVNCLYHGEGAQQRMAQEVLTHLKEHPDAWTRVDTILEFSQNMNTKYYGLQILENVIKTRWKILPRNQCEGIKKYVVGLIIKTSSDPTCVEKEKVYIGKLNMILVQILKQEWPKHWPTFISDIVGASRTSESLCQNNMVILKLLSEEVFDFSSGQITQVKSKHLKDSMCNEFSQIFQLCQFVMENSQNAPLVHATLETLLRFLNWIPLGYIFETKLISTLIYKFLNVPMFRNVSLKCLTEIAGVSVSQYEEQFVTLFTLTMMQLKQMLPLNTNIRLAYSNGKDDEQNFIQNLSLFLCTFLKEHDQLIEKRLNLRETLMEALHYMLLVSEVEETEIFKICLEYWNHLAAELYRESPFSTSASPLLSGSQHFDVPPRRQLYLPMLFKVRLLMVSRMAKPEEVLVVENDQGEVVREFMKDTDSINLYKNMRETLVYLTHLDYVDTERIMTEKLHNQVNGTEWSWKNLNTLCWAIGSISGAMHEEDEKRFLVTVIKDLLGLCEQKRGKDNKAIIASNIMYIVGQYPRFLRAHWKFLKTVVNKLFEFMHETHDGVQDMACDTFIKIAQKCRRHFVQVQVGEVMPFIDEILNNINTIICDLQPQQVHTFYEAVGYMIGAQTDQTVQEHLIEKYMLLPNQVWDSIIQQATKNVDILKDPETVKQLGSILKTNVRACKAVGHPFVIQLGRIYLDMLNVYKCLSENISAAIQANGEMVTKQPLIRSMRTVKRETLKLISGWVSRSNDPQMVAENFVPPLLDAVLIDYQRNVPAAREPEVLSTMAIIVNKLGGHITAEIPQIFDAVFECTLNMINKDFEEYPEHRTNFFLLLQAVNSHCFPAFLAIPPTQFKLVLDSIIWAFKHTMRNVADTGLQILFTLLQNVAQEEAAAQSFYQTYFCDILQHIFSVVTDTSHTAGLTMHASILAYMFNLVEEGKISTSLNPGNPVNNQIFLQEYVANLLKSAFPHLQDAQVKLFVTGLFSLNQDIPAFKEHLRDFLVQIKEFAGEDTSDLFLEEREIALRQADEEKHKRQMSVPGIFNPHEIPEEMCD
pIC50: −log10 of the molar value.
Reported Property: pIC50

In [3]: df
Out[3]:
                                  structure  reported_property  readout_value
0  O=C(/C=C\n1cnc(-c2cc(C(F)(F)F)cc(S(F)(F)(F)(F)F)c2)n1)NNc1ccccn1              pIC50           7.66
1  CC(C)(C)C(=O)NNC(=O)/C=C\n1cnc(-c2cc(C(F)(F)F)cc(S(F)(F)(F)(F)F)c2)n1              pIC50           6.90
2  O=C(/C=C\n1cnc(-c2cc(C(F)(F)F)cc(S(F)(F)(F)(F)F)c2)n1)NNc1cnccn1              pIC50           8.11
